Source of measurements: patent US12522597B2

Tested on: MDR1
test_summary: MDCK-MDR1 permeability assay (BBB penetration potential)
Format: in vitro ADME
experimental_setup: dog, MDCK-MDR1, pH 7.4, MDCK-MDR1: Papp A-B
Consider the following compounds and their measured Papp A→B at 120 min, 5 μM readings.
Give the number; ×10⁻⁶ cm/s is assumed, so skip it.

As a guide, the following entries are already answered.
- compound: "Cc1ccc(-c2ccc(-c3ccc(O[C@H]4C[C@@H]5CCC[C@@H](N5)[C@H]4F)nn3)c(O)c2)nn1 (single isomer, unassigned)"
  Papp A→B at 120 min, 5 μM (×10⁻⁶ cm/s): 3.96
- compound: "COc1cc(-c2ccc(-c3ccc(O[C@H]4C[C@@H]5CCC[C@@H](N5)[C@H]4F)nn3)c(O)c2)cnn1 (single isomer, unassigned)"
  Papp A→B at 120 min, 5 μM (×10⁻⁶ cm/s): 4.19
- compound: "Cc1cc(-c2ccc(-c3ccc(O[C@H]4C[C@@H]5CCC[C@@H](N5)[C@H]4F)nn3)c(O)c2)ccn1 (single isomer, unassigned)"
  Papp A→B at 120 min, 5 μM (×10⁻⁶ cm/s): 5.13

input: Need Papp A→B at 120 min, 5 μM, item Oc1cc(-c2cn[nH]c2)ccc1-c1ccc(O[C@@H]2C[C@H]3CCC[C@H](N3)[C@@H]2F)nn1 (single isomer, unassigned)
output: 2.47

input: Need Papp A→B at 120 min, 5 μM, item Cn1ccc2cc(-c3ccc(O[C@@H]4C[C@@]5(C)CC[C@](C)(N5)[C@@H]4F)nn3)c(O)cc2c1=O (single isomer, unassigned)
output: 9.29

input: Need Papp A→B at 120 min, 5 μM, item Oc1cc(-c2cn[nH]c2)ccc1-c1ccc(O[C@H]2C[C@@H]3COC[C@@H](N3)[C@H]2F)nn1 (single isomer, unassigned)
output: 7.03
